molecular target: GluN2D-containing NMDA receptors (Homo sapiens, UniProt O15399); experiment: Two-electrode voltage-clamp recordings from Xenopus laevis oocytes, GluN2D; assay type: cell-based; conditions: 10 μM test compound with glutamate 100 μM and glycine 30 μM; percent of response without compound; Tables 1-5
Sequence (O15399 28-1336, other chains not shown): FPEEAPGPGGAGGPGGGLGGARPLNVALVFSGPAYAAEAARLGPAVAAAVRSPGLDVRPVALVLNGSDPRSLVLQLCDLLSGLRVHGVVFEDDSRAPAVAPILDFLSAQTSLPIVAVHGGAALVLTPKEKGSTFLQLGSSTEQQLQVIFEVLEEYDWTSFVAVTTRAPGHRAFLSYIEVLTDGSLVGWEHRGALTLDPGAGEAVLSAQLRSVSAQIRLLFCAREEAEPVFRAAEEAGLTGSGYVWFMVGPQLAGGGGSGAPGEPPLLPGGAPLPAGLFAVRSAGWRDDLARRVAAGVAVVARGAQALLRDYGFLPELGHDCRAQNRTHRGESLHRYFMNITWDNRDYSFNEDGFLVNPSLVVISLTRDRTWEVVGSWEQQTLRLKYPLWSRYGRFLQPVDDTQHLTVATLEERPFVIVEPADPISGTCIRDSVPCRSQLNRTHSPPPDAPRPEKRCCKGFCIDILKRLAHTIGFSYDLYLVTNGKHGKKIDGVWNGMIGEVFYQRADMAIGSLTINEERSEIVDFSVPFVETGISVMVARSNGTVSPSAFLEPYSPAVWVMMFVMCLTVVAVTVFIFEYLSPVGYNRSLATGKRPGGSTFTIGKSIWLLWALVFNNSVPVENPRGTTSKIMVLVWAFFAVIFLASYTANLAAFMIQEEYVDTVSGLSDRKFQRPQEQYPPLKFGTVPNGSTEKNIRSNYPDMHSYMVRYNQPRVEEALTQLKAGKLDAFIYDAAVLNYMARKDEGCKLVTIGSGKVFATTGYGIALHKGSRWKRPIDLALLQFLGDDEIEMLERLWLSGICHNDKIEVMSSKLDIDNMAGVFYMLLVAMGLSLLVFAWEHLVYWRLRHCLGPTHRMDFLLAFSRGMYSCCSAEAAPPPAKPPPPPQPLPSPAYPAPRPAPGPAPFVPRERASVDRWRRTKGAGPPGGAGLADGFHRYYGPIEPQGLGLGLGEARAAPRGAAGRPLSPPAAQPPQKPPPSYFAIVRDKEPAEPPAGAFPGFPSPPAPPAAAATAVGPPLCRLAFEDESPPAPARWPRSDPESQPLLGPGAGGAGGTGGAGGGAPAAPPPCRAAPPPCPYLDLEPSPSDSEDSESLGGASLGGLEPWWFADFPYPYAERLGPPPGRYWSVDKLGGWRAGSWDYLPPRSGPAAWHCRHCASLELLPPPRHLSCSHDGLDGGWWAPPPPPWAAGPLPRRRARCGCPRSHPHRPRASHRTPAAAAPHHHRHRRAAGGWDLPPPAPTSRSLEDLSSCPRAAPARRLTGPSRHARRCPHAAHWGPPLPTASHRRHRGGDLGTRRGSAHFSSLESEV
Observable: I10 μM/ICONTROL (mean ± SEM, %) Glu N2D

Asked: I10 μM/ICONTROL (mean ± SEM, %) Glu N2D for Cc1sc2ncn(CC(=O)OC(C)(C)C)c(=O)c2c1-c1cccc(I)c1 [1 / 3-I—Ph / Me / OtBu] ?
Given back: 94

Asked: Also CCSC(=O)Cn1cnc2sc(C)c(-c3cccc(Cl)c3)c2c1=O [1 / 3-Cl—Ph / Me / SEt] ?
Given back: 90

Asked: Also Cc1sc2ncn(CC(=O)c3ccc(Cl)cc3Cl)c(=O)c2c1-c1cccc(I)c1 [1 / 3-I—Ph / Me / 2,4-Cl—Ph] ?
Given back: 93

Asked: Also O=C(Cn1cnc2scc(-c3ccc(I)cc3)c2c1=O)N1CCCC1 [4-I—Ph / H] ?
Given back: 101
